- System Tested: T1, human tissue factor pathway inhibitor (TFPI) (human, UniProt P10646 29-304, limits assumed)
- T1 construct: bought; also called hTFPI; human TFPI
- T1 sequence (looked up): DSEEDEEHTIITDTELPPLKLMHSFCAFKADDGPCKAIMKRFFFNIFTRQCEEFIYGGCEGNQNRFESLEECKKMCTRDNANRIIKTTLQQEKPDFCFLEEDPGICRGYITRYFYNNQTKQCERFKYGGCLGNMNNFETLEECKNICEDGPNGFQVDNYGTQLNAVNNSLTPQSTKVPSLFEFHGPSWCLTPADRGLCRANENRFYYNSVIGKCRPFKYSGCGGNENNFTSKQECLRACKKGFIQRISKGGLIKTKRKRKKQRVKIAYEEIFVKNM
- Assay Name: SPR, TFPI immobilized
Measure Name: KD fold improvement (fold)

Binder: 2A8-g200 (HC Q1E+R30S+S35D+S55R+S56G+K99L/LC D1S+I2Y+A13S+S21T+R28P+N29K+Y48F+N51V+E80M+S89A+D91W+D92S+G93S+V94T) (Fab, V domains shown) VH: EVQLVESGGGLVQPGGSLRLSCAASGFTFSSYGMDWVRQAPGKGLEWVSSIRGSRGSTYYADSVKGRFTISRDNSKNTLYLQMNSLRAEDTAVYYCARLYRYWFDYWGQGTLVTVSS VL: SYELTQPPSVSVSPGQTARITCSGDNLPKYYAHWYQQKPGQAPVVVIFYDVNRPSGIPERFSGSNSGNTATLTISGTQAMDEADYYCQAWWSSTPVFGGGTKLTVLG
Measure Name: KD fold improvement
Numeric Value: 31.7

Just for reference, patent USRE47150 is where these values come from.
